The molecules listed here are annotated with their Isla mujeres (% dead (SE)).
- Tested on: Ae. aegypti Isla mujeres strain (metabolically pyrethroid resistant)
- measurement protocol: Toxicity assay on treated netting (Example 7), Isla mujeres strain
- Assay type: in vivo
- test conditions: Dose 0.025 nm/cm^2; Time 1 hour
Hi! Could you send only the number? It should be in %, unit omitted.

As a guide, the following entries are already answered.
CC1(C)C(C=C(Cl)C(F)(F)F)C1C(=O)OCc1ccc(F)c(C(F)(F)F)c1F (centres unmarked) | 100
CC1(C)[C@H](C=C(Cl)Cl)[C@H]1C(=O)OCc1c(F)c(F)cc(F)c1F [Transfluthrin, transfluthrin, reference compound] | 100
CC1(C)C(C=C(Cl)Cl)C1C(=O)OCc1ccc(F)c(C(F)(F)F)c1F (centres unmarked) | 100
CC1(C)C(C=C(F)F)C1C(=O)OCc1ccc(F)c(C(F)(F)F)c1F (centres unmarked) | 0

Please examine the following record next.
Problem: Please give the measured Isla mujeres (% dead (SE)) for this molecule: C/C=C/C1C(C(=O)OCc2c(F)c(F)c(COC)c(F)c2F)C1(C)C (stereo in doubt) [Metafluthrin, metafluthrin, reference compound]
Result: 56.3

----------
Form field: Isla mujeres (% dead (SE)) (one value per entry).
- Test system: Ae. aegypti Isla mujeres strain (metabolically pyrethroid resistant)
- measurement protocol: Toxicity assay on treated netting (Example 7), Isla mujeres strain
- Type: in vivo
- test conditions: Dose 2.5 nm/cm^2; Time 24 hours
Note: unit % is implicit; provide only the numeric part.

Solved entries:
CC1(C)C(C=C(F)F)C1C(=O)OCc1ccc(F)c(C(F)(F)F)c1F (stereo not shown) | 100
CC1(C)C(C=C(Cl)Cl)C1C(=O)OC(C#N)c1cccc(Oc2ccccc2)c1 (stereo not drawn) [Alpha-cypermethrin, alpha cypermethrin, reference compound] | 100

Problem: Entry CC1(C)[C@H](C=C(Cl)Cl)[C@H]1C(=O)OCc1c(F)c(F)cc(F)c1F [Transfluthrin, transfluthrin, reference compound] , system Ae. aegypti Isla mujeres strain (metabolically pyrethroid resistant): what Isla mujeres (% dead (SE)) was measured?
Result: 100

----------
- Tested on: KDR Resisant An. Gambiae
- measurement protocol: Bottle toxicity assay (Example 8), knockdown resistant mosquitoes
- Format: in vivo, Anopheles gambiae
- test conditions: Dose 0.25 μg/bottle; Strain Tested F123; Time 24 hours
We begin with a simple list: items and their reported KDR Resisant An. Gambiae (% dead (SE)).
Answer with a number only, understood to be in %.

CC1(C)C(C=C(Cl)C(F)(F)F)C1C(=O)OCc1ccc(F)c(C(F)(F)F)c1F (stereo not shown) | 100

Problem: Value lookup for KDR Resisant An. Gambiae (% dead (SE)); key = CC1(C)C(C=C(Cl)Cl)C1C(=O)OCc1ccc(F)c(C(F)(F)F)c1F (stereo not shown)
Result: 100

Problem: Now try C/C=C/C1C(C(=O)OCc2c(F)c(F)c(COC)c(F)c2F)C1(C)C (stereo in doubt) [Metafluthrin, metafluthrin, reference compound] .
Result: 100

Problem: Item: CC1(C)C(C=C(Cl)Cl)C1C(=O)OCc1cccc(Oc2ccccc2)c1 (stereo not shown) [Permethrin, permethrin, reference compound]
Result: 24

Where do the numbers come from? From patent US20150038707A1.
